# target or system: NADPH oxidase 1 (Homo sapiens, UniProt Q9Y5S8)
# Sequence (Q9Y5S8 whole entry): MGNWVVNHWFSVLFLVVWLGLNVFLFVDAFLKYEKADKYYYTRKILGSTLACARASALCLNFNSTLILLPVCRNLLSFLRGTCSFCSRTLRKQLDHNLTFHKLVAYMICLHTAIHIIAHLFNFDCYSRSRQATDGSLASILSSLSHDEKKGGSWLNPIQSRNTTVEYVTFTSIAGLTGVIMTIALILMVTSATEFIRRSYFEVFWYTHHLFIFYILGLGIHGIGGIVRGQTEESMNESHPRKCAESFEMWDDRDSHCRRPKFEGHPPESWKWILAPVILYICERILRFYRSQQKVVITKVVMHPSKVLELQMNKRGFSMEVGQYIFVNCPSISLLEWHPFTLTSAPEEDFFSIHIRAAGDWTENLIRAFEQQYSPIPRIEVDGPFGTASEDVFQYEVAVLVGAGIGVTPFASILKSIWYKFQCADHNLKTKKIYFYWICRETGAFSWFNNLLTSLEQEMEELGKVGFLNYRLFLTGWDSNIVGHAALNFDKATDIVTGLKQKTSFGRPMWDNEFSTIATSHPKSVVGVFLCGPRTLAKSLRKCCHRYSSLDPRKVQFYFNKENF
# assay: Antagonist activity at human NOX1 expressed in CHO cell membrane coexpressing tetracylin repressor assessed as inhibition of ROS production after 20 mins by cell-free amplex red assay
Field: pKi. Provide a value for each of the compounds that follow.
One number for each entry, as −log10 of the molar value.

For orientation, consider the following solved cases.
# compound string, pKi
data = [
    ("Cl.O=c1c2c3n(c(=O)cc2[nH]n1-c1ccccc1Cl)CCCN(Cc1ccccc1)C3", 7.00),
    ("Cl.O=c1c2c3n(c(=O)cc2[nH]n1-c1ccccc1Cl)CCCN(Cc1cccnc1)C3", 6.68),
    ("O=c1c2c3n(c(=O)cc2[nH]n1-c1ccccc1Cl)CCCNC3", 6.92),
]

Would you mind giving pKi for every compound in the list below?
1. O=c1c2c3n(c(=O)cc2[nH]n1-c1ccccc1Cl)CCCN(Cc1cccc(Cl)c1)C3
2. O=c1c2c3n(c(=O)cc2[nH]n1-c1ccccc1Cl)CCOC3
3. COc1cccc(CN2CCCn3c(c4c(=O)n(-c5ccccc5OC)[nH]c4cc3=O)C2)c1
4. COc1ccccc1-n1[nH]c2cc(=O)n3c(c2c1=O)CN(Cc1ccccc1)CCC3
5. O=c1c2c3n(c(=O)cc2[nH]n1-c1ccccc1Cl)CCN(Cc1ccccc1)C3
6. Cl.O=c1c2c3n(c(=O)cc2[nH]n1-c1ccccc1Cl)CCCN(Cc1ccccn1)C3
7. O=c1c2c3n(c(=O)cc2[nH]n1-c1ccccc1Cl)CCCN(Cc1ccc(Cl)cc1)C3

Response line:
1: 6.98; 2: 6.76; 3: 6.67; 4: 6.66; 5: 6.40; 6: 6.95; 7: 7.02

###

Hi there, I'd appreciate the recorded Ki for every entry that follows.
# target or system: NADPH oxidase 4 (Homo sapiens)
# Sequence (Q9NPH5 whole entry): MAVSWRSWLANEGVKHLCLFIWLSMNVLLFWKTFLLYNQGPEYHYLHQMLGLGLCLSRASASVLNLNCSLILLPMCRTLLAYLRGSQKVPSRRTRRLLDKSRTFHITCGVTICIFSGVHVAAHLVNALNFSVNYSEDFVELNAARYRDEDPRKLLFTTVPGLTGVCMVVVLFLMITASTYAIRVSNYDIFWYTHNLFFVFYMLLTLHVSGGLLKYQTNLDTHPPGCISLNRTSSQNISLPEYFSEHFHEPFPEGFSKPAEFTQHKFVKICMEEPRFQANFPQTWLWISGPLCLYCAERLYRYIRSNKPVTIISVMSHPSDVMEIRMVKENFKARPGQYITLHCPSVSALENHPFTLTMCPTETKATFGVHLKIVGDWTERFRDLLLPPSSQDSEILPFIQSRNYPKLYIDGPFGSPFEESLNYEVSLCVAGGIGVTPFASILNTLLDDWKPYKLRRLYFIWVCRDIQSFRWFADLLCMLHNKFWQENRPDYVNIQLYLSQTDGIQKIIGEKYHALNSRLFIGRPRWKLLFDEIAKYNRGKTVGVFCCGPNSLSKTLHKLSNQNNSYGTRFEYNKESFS
# assay: Antagonist activity at human NOX4 expressed in CHO cell membrane coexpressing tetracylin repressor assessed as inhibition of ROS production after 20 mins by cell-free amplex red assay
# test parameters: in the assay text read “HEK293 cell membrane” for “CHO cell membrane”
Numbers only, in nM.

Below, each entry is followed by its recorded Ki result.
# compound string, target or system, Ki / nM
data = [
    ("O=c1c2c3n(c(=O)cc2[nH]n1-c1ccccc1Cl)CCCN(Cc1ccc(Cl)cc1)C3", "NADPH oxidase 4 (Homo sapiens)", 103),
    ("O=c1c2c3n(c(=O)cc2[nH]n1-c1ccccc1Cl)CCN(Cc1ccccc1)C3", "NADPH oxidase 4 (Homo sapiens)", 142),
    ("Cl.O=c1c2c3n(c(=O)cc2[nH]n1-c1ccccc1Cl)CCCN(Cc1cccnc1)C3", "NADPH oxidase 4 (Homo sapiens)", 94),
    ("O=c1c2c3n(c(=O)cc2[nH]n1-c1ccccc1Cl)CCCN(Cc1ccccc1Cl)C3", "NADPH oxidase 4 (Homo sapiens)", 76),
]

Each molecule below has a reported value. Please supply its Ki.
1. Cl.O=c1c2c3n(c(=O)cc2[nH]n1-c1ccccc1Cl)CCCN(Cc1ccccn1)C3
2. COc1ccccc1CN1CCCn2c(c3c(=O)n(-c4ccccc4Cl)[nH]c3cc2=O)C1
3. COc1cccc(CN2CCCn3c(c4c(=O)n(-c5ccccc5Cl)[nH]c4cc3=O)C2)c1.Cl
4. COc1cccc(CN2CCCn3c(c4c(=O)n(-c5ccccc5OC)[nH]c4cc3=O)C2)c1
5. O=c1c2c3n(c(=O)cc2[nH]n1-c1ccccc1Cl)CCOC3

Response line:
67
111
112
131
156

###

# target or system: Cytochrome P450 3A4 (Homo sapiens, UniProt P08684)
# Sequence (P08684 whole entry): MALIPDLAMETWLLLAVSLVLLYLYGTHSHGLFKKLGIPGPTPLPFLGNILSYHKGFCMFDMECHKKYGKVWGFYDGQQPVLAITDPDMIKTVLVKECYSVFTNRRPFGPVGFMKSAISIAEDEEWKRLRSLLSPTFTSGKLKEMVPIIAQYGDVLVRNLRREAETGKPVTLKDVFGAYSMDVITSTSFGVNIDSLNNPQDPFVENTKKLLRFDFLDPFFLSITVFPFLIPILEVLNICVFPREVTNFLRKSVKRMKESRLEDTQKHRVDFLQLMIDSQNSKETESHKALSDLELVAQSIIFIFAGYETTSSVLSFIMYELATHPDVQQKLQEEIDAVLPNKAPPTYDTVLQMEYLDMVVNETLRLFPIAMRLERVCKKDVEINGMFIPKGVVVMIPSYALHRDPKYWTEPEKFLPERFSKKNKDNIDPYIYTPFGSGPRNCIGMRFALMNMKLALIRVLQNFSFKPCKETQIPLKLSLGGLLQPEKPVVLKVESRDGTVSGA
# assay: Inhibition of human recombinant CYP3A4 by mass spectrophotometry
# Assay type: ADME
pIC50: −log10 of the molar value.
measure name: pIC50

Note to self: pIC50 recorded for Cl.O=c1c2c3n(c(=O)cc2[nH]n1-c1ccccc1Cl)CCCN(Cc1ccccc1)C3 was < 4.60

###

For each record, write down the corresponding logD.
# assay: Lipophilicity, log D of the compound at pH 7.4
# Type: physicochemical
# test parameters: buffer
Give bare numbers.

# compound string, logD
records = [
    ("O=c1c2c3n(c(=O)cc2[nH]n1-c1ccccc1Cl)CCCN(Cc1ccccc1Cl)C3", 2.76),
    ("COc1cccc(CN2CCCn3c(c4c(=O)n(-c5ccccc5Cl)[nH]c4cc3=O)C2)c1.Cl", 1.99),
]

Quick note, logD for Cl.O=c1c2c3n(c(=O)cc2[nH]n1-c1ccccc1Cl)CCCN(Cc1cccnc1)C3 landed at 0.92

###

Field: pKi. Provide a value for each of the molecules that follow.
# target or system: NADPH oxidase 4 (Homo sapiens, UniProt Q9NPH5)
# assay: Antagonist activity at human NOX4 expressed in CHO cell membrane coexpressing tetracylin repressor assessed as inhibition of ROS production after 20 mins by cell-free amplex red assay
# test parameters: in the assay text read “HEK293 cell membrane” for “CHO cell membrane”
Give bare numbers, as −log10 of the molar value.

Here is how some molecules turned out for pKi.
# compound string, target or system, pKi
records = [
    ("COc1ccc(CN2CCCn3c(c4c(=O)n(-c5ccccc5Cl)[nH]c4cc3=O)C2)cc1", "NADPH oxidase 4 (Homo sapiens, UniProt Q9NPH5)", 6.94),
    ("COc1ccccc1-n1[nH]c2cc(=O)n3c(c2c1=O)CN(Cc1ccccc1)CCC3", "NADPH oxidase 4 (Homo sapiens, UniProt Q9NPH5)", 6.84),
    ("O=c1c2c3n(c(=O)cc2[nH]n1-c1ccccc1Cl)CCCN(Cc1cccc(Cl)c1)C3", "NADPH oxidase 4 (Homo sapiens, UniProt Q9NPH5)", 7.00),
    ("O=c1c2c3n(c(=O)cc2[nH]n1-c1ccccc1Cl)CCCNC3", "NADPH oxidase 4 (Homo sapiens, UniProt Q9NPH5)", 7.06),
    ("CC(C)(C)OC(=O)N1CCCn2c(c3c(=O)n(-c4ccccc4Cl)[nH]c3cc2=O)C1", "NADPH oxidase 4 (Homo sapiens, UniProt Q9NPH5)", 6.99),
]

Your task in this section: give pKi for each listed record.
1. O=c1c2c3n(c(=O)cc2[nH]n1-c1ccccc1Cl)CCCN(Cc1ccoc1)C3
2. Cl.O=c1c2c3n(c(=O)cc2[nH]n1-c1ccccc1Cl)CCCN(Cc1ccccc1)C3
3. COc1ccccc1-n1[nH]c2cc(=O)n3c(c2c1=O)CN(Cc1ccccn1)CCC3.Cl

Response line:
[6.95, 7.14, 7.03]

###

# target or system: NADPH oxidase 1 (Homo sapiens)
# assay: Antagonist activity at human NOX1 expressed in CHO cell membrane coexpressing tetracylin repressor assessed as inhibition of ROS production after 20 mins by cell-free amplex red assay
Kindly state pKi for each of the entries shown.
Answers are plain numbers, as −log10 of the molar value.

For orientation, consider the following solved cases.
# compound string, measure name, reading
records = [
    ("CC(C)(C)OC(=O)N1CCCn2c(c3c(=O)n(-c4ccccc4Cl)[nH]c3cc2=O)C1", "pKi", 6.83),
    ("O=c1c2c3n(c(=O)cc2[nH]n1-c1ccccc1Cl)CCCN(Cc1ccoc1)C3", "pKi", 6.70),
    ("O=c1c2c3n(c(=O)cc2[nH]n1-c1ccccc1Cl)CCCN(Cc1ccccc1Cl)C3", "pKi", 7.06),
    ("COc1cccc(CN2CCCn3c(c4c(=O)n(-c5ccccc5Cl)[nH]c4cc3=O)C2)c1.Cl", "pKi", 6.95),
    ("COc1ccc(CN2CCCn3c(c4c(=O)n(-c5ccccc5Cl)[nH]c4cc3=O)C2)cc1", "pKi", 6.74),
    ("COc1ccccc1-n1[nH]c2cc(=O)n3c(c2c1=O)CN(Cc1ccccn1)CCC3.Cl", "pKi", 6.66),
]

Summary for this compound, COc1ccccc1CN1CCCn2c(c3c(=O)n(-c4ccccc4Cl)[nH]c3cc2=O)C1 : pKi is 6.88
